Just for reference, patent US12263248B2 is where these values come from.

measurementNotes: Encapsulation efficiency of RNA (QUANT-IT RIBOGREEN RNA assay)
Assay type: physicochemical
conditionDescription: Table 1A
readoutName: EE (%)
Kindly answer with a numeric value in %, unit omitted.

CCCCCCCCCOC(=O)CCCCCCCN(CCO)CCCCCC(=O)OC(CCCCCCCC)CCCCCCCC [Compound 27] : 94.27
CCCCCCCCCOC(=O)CCCCCCCN(CCCCCCCC(=O)OC(CCCCCCCC)CCCCCCCC)Cc1ccccc1 [Compound 94] : 0
CCCCCCCCCOC(=O)CCCCCCCN(CCO)CCCCCCC/C=C\C(CCCCCCCC)CCCCCCCC [Compound 152] : 99.29

// Input: CCCCCCCCCOC(=O)CCCCCCCN(CCO)CCCCCCCC(=O)OC(CCC)CCC [Compound 58] . Output its EE (%) only. 92.54

----------
measurementNotes: Particle size and polydispersity index of nanoparticle compositions (Zetasizer Nano ZS)
Format: physicochemical
conditionDescription: Table 1A; lipid:DSPC:cholesterol:PEG-DMG 50:10:38.5:1.5 mol %
The compounds listed here are annotated with their Size (nm).
Write the number in nm without appending the unit.

Examples with their reported Size (nm) follow.
CCCCCCCCC(CCCCCCCC)OC(=O)CCCCCCCN(CCO)CCCCCCCC(=O)OC(CCCCCCCC)C1CC1 (stereo not shown) : 63.9
CCCCCCCCC(CCCCCCCC)OC(=O)CCCCCCCN(CCO)CCCC(=O)OC1CCC(CCCCC)CC1 (stereo not shown) : 77
CCCCCCCCC(CCCCCCCC)OC(=O)CCCCCCCN(C)CCCCCCCCCC(=O)OCCCCCCC : 62.1

Next, consider the following compound.
State, in one line, measured Size (nm) of `CCCCCCCCCCCOC(=O)CCCCCN(CCO)CCCCCC(=O)OCCCCCCCCCCC` 91.3

----------
Attribute: % EE
measurementNotes: Encapsulation efficiency of RNA (QUANT-IT RIBOGREEN RNA assay)
Format: physicochemical
conditionDescription: Table 1D; for subcutaneous administration; # formulated with hEPO mRNA

Known % EE results, listed for orientation:
CCCCCCCCCC(=O)OC(C)CCCCCCN(CCO)CCCCCCCOC(=O)C(CCCCCCCC)CCCCCCCC (centres unmarked) [Compound 165] : 93.5%
CCCCCCCCCOC(=O)C(C)CCCCCCN(CCO)CCCCCCCOC(=O)C(CCCCCCCC)CCCCCCCC (centres unmarked) [Compound 163] : 92.8%

Using the record for CCCCCCCCC(CC)OC(=O)CCCCCCCN(CCO)CCCCCCCC(=O)OC(CCCCCCCC)CCCCCCCC (centres unmarked) [Compound 49] , state its measured % EE. 96.2%

Provide % EE value for the following molecule: CCCCC/C=C\C/C=C\CCCCCCCCC(CCCCCCCC/C=C\C/C=C\CCCCC)OC(=O)CCCN(C)C [MC3, DLin-MC3-DMA, reference compound] 98.7%

Please give the documented % EE of CCCCCCCCCOC(=O)CCCCCCCN(CCCCCCCC(=O)OC(CCCCCCCC)CCCCCCCC)CCCN/C(=N/C#N)N(C)C [Compound 168] 96.1%

Supply reported % EE belonging to this molecule: CCCCCCCCCOC(=O)CCCCCCCN(CCCCCCCC(=O)OC(CCCCCCCC)CCCCCCCC)CCCNC(=S)N(C)C [Compound 111] 90.9%

Retrieve % EE measured for CCCCCCCCC(C)OC(=O)CCCCCCCN(CCO)CCCCCCCC(=O)OC(CCCCCCCC)CCCCCCCC (centres unmarked) [Compound 48] and print it. 96.2%

Tell me measured % EE for CCCCCCCCCCCOC(=O)CCCCCN(CCO)CCCCCCCC(=O)OC(CCCCCCCC)CCCCCCCC [Compound 25] please. 97.8%

Quick one: give measured % EE for CCCC/C=C\CCC(CC/C=C\CCCC)OC(=O)CCCCCCCN(CCO)CCCCCCCC(=O)OCCCCCCCCC [Compound 60] 93.0%

Find the measured % EE of CCCCCCCCCOC(=O)CCCCCCCN(CCCCCCCC(=O)OC(CCCCCCCC)CCCCCCCC)CCCN/C(=N/S(C)(=O)=O)N(C)C [Compound 233] and report it. 97.5%

For the molecule CCCCCCCCCOC(=O)C(C)CCCCCCN(CCO)CCCCCCCC(=O)OC(CCCCCCCC)CCCCCCCC (centres unmarked) [Compound 164] , give its reported % EE. 94.1%

In one line, give reported % EE of the entry CCCCCCCCCC(=O)OCCCCCCCN(CCO)CCCCCCCOC(=O)C(CCCCCCCC)CCCCCCCC [Compound 151] . 95.4%

# return recorded % EE for input CCCCCCCCCC(=O)OC(C)CCCCCCN(CCO)CCCCCCCC(=O)OC(CCCCCCCC)CCCCCCCC (centres unmarked) [Compound 98] 93.8%

Write down % EE measured for item CCCCCCCCCOC(=O)CCCCCCCN(CCO)CCCCCCCC(=O)OC(CCCCCCCC)CCCCCCCC [Compound 18] 96.2%

Please supply the value of reported % EE for the item CCCCCCCCCOC(=O)CCCCCCCN(CCCCCCCC(=O)OC(CCCCCCCC)CCCCCCCC)CCCNC(=N)N [Compound 207] 102%

Quick one: give measured % EE for CCCCCCCCCOC(=O)CCCCCCCN(CCO)CCCCCCCOC(=O)C(CCCCCCCC)CCCCCCCC [Compound 30] 93.1%

Answer with the recorded % EE for the molecule listed here: CCCCCCCCCC(=O)OCCCCCCCN(CCO)CCCCCCCC(=O)OC(CCCCCCCC)CCCCCCCC [Compound 96] 94.4%

----------
Tested on: hEPO mRNA
measurementNotes: hEPO expression after intravenous administration to rats
Format: in vivo, rat
conditionDescription: rats, intravenous, 2 mpk, 6 hours
Consider the following molecules and their measured Lipid/MC3 hEPO conc. ratio 2 mpk readings.
Form rule: numeric answer, no unit written next to it.

Example molecules with recorded Lipid/MC3 hEPO conc. ratio 2 mpk:
CCCCCC/C=C\COC(=O)CCCCCCCN(CCO)CCCCCCCC(=O)OC(CCCCCCCC)CCCCCCCC [Compound 24] : 1.01
CCCCCCCCC(C)OC(=O)CCCCCCCN(CCO)CCCCCCCC(=O)OC(CCCCCCCC)CCCCCCCC (stereo not drawn) [Compound 48] : 3.84
CCCCCCCCCOC(=O)CCCCCCCN(CCO)CCCCCCCOC(=O)C(CCCCCCCC)CCCCCCCC [Compound 30] : 1.14
CCCCCCCCC(CC)OC(=O)CCCCCCCN(CCO)CCCCCCCC(=O)OC(CCCCCCCC)CCCCCCCC (stereo not drawn) [Compound 49] : 3.28
CCCCCCCCC(CCC)OC(=O)CCCCCCCN(CCO)CCCCCCCC(=O)OC(CCCCCCCC)CCCCCCCC (stereo not drawn) [Compound 50] : 3.03

Attention now shifts to the item below.
Name the recorded Lipid/MC3 hEPO conc. ratio 2 mpk of the molecule listed here: CCCCCCCCCOC(=O)CCCCCCCN(CCO)CCCCCCCC(=O)OC(CCCCCCCC)CCCCCCCC [Compound 18] 0.81

----------
measurementNotes: Pharmacokinetics of lipids in mice
Type: in vivo
conditionDescription: Spleen, mouse
readoutName: Cmax (ng/mL)
// note: answer is a bare numeric in ng/mL

CCCCCCCCCOC(=O)CCCCCCCN(CCO)CCCCCCCC(=O)OC(CCCCCCCC)CCCCCCCC : 3770

Then there is this compound:
Tell me its Cmax given `CCCCCCCCCCCOC(=O)CCCCCN(CCO)CCCCCCCC(=O)OC(CCCCCCCC)CCCCCCCC` as the entry. 20400

----------
measurementNotes: Nanoparticle characterisation: particle size, polydispersity index, zeta potential
Format: physicochemical
conditionDescription: nanoparticle composition with hEPO mRNA (Table 30)
readoutName: Zeta potential (mV)
Please respond with the number in mV and leave the unit unwritten.

CCCCC/C=C\C/C=C\CCCCCCCCC(CCCCCCCC/C=C\C/C=C\CCCCC)OC(=O)CCCN(C)C [MC3, DLin-MC3-DMA, reference compound] : −3.64

Tell us which Zeta potential value is on record for CCCCCCCCCOC(=O)CCCN(CCO)CCCCCCCC(=O)OC(CCCCCCCC)CCCCCCCC [Compound 26] −3.73

Respond only with Zeta potential recorded for CCCCCCCCC(C)OC(=O)CCCCCCCN(CCO)CCCCCCCC(=O)OC(CCCCCCCC)CCCCCCCC (centres unmarked) [Compound 48] −3.61

Note down Zeta potential recorded for CCCCCCCCCCCOC(=O)CCCCCN(CCO)CCCCCCCC(=O)OC(CCCCCCCC)CCCCCCCC [Compound 25] −3.88

Give recorded Zeta potential. CCCCCCCCCOC(=O)CCCCCCCN(CCO)CCCCCCCC(=O)OC(CCCCCCCC)CCCCCCCC [Compound 18] −3.53

----------
measurementNotes: Particle size and polydispersity index of nanoparticle compositions (Zetasizer Nano ZS)
Assay type: physicochemical
conditionDescription: Table 1C; compositions for subcutaneous administration
Measured Size (nm) values are reported for all entries that follow.
Give the value in nm but do not write nm after it.

CCCCCCCCCOC(=O)CCCCCCCN(CCCCO)CCCCCCCC(=O)OC(CCCCCCCC)CCCCCCCC [Compound 20] : 86.7
CCCCCCCCCOC(=O)CCCCCCCN(CCCCCCCC(=O)OC(CCCCCCCC)CCCCCCCC)CCCNC(=S)NC [Compound 113] : 83.9
CCCCC/C=C\C/C=C\CCCCCCCCC(CCCCCCCC/C=C\C/C=C\CCCCC)OC(=O)CCCN(C)C [MC3, DLin-MC3-DMA, reference compound] : 56.9
CCCCCCCCC(CC)OC(=O)CCCN(CCO)CCCCCCCC(=O)OC(CCCCCCCC)CCCCCCCC (stereo not shown) [Compound 72] : 77.3
CCCCCC/C=C\COC(=O)CCCCCCCN(CCO)CCCCCCCC(=O)OC(CCCCCCCC)CCCCCCCC [Compound 24] : 88.5
CCCCCCCCCOC(=O)CCCCCCCN(CCCCCCCC(=O)OC(CCCCCCCC)CCCCCCCC)CCCNC(=O)NC [Compound 112] : 83.7

# context switch: different compound, same Size (nm)
For the compound CCCCCCCCCOC(=O)CCCCCCCN(CCCCCCCC(=O)OC(CCCCCCCC)CCCCCCCC)CCCNC(=O)N(C)C [Compound 110] , give its measured Size (nm) value. 91.5
